B1: tRNA (parent)
chain: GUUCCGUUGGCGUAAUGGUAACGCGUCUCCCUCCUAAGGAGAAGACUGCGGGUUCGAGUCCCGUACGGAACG

- Variants of: B1
- assay_remarks: yeast fitness relative to wild type (ratio to wild type); higher = fitter; tRNA-Arg(CCU), competitive growth, 37 C, YPD
Variants at the floor of the assay were thinned out.
metric_name: yeast fitness
Just the number, please, no unit attached.

Input line: Find the measured yeast fitness of G10A C31U A65U and report it.
Output line: 0.566

Input line: Look up yeast fitness of C11U A21G U64C and report it.
Output line: 0.945

Input line: Give the measured yeast fitness for U13A U47A C60A A69C
Output line: 0.525

Input line: Output yeast fitness of U28A A70G
Output line: 0.904

Input line: Look up yeast fitness of G10A C22A and report it.
Output line: 0.717

Input line: Retrieve yeast fitness measured for U28G A69U and print it.
Output line: 0.789

Input line: Give the reported yeast fitness for this variant. U7A C34G C62U G68C
Output line: 0.559

Input line: Please look at this variant and report its yeast fitness: U16C C60G
Output line: 0.658

Input line: Answer with the recorded yeast fitness of G18A C55U only.
Output line: 0.554

Input line: Provide yeast fitness value for the following variant: A14G U59A
Output line: 0.894

Input line: Kindly indicate its recorded yeast fitness. Item: U8C A57C
Output line: 0.599

Input line: Assign yeast fitness to the following record: G17A C33U
Output line: 0.607

Input line: Answer with reported yeast fitness of C24A A43G
Output line: 0.597

Input line: Provide yeast fitness value for the following variant: A43C G44A
Output line: 1.01

Input line: Provide measured yeast fitness value, entry: C4U A40G A65U
Output line: 0.596

Input line: Please list yeast fitness recorded for the variant G6A A14C G41A A42U G56A G63C
Output line: 0.665

Input line: Input C27G C31G A36U A37U , output reported yeast fitness.
Output line: 0.615

Input line: Specify yeast fitness for C29U C31U U54G A65U G67A and stop.
Output line: 0.565

Input line: Indicate the recorded yeast fitness value for this variant: U16G U47A U54A A57U U64A A69U
Output line: 0.678
